Assay: Inhibition of bacterial DNA gyrase
Note to self: IC50 under 0.5 µg/mL means yes, ties and anything higher get no.

> print(dat)
                                   molecule  cat
1  COc1ccc2nccc(-n3cc4c(n3)CCC(NC(=O)c3ccc5c(c3)NC(=O)CO5)C4)c2c1 (stereo not given)  yes
2  COc1ccc2nccc(-n3cc4c(n3)CCC(NCc3ccc5c(c3)OCCO5)C4)c2n1 (stereo not given)   no
3  COc1ccc2nccc(-n3cc4c(n3)CCC(NCc3ccc5c(c3)OCCO5)C4)c2c1 (stereo not given)   no
4  COc1ccc2nccc(-n3cc4c(n3)CCC(NC/C=C/c3ccccc3)C4)c2n1 (stereo not given)  yes
5  COc1ccc2nccc(-n3cc4c(n3)CCC(NC(=O)c3cc5c(cc3C(F)(F)F)SCC(=O)N5)C4)c2c1 (stereo not given)   no
6  O=C1CSc2ccc(C(=O)NC3CCc4nn(-c5ccnc6cc(Cl)ccc56)cc4C3)cc2N1 (stereo not given)   no
7  COc1ccc2nccc(-n3cc4c(n3)CCC(NC(=O)/C=C/c3ccccc3)C4)c2c1 (stereo not given)   no
8  COc1ccc2nccc(-n3cc4c(n3)CCC(NCc3ccc5c(c3)OCO5)C4)c2n1 (stereo not given)  yes
9  COc1ccc2nccc(-n3cc4c(n3)CCC(NCc3ccc5c(c3)NC(=O)CS5)C4)c2n1 (stereo not given)  yes

====

System: Staphylococcus aureus
Experiment: Antibacterial activity against ciprofloxacin resistant methicillin resistant Staphylococcus aureus OC4222
Type: functional
Some molecules, each annotated with its measured MIC.
metric-name: MIC

> print(dat)
                                    molecule       result
 1  COc1ccc2nccc(-n3cc4c(n3)CCC(NC(=O)c3ccc5c(c3)NC(=O)CS5)C4)c2c1 (configuration not stated)  0.062 µg/mL
 2  COc1ccc2nccc(-n3cc4c(n3)CCC(NCc3ccc5c(c3)OCCO5)C4)c2c1 (configuration not stated)     16 µg/mL
 3  COc1ccc2nccc(-n3cc4c(n3)CCC(NC/C=C/c3ccccc3)C4)c2c1 (configuration not stated)   0.25 µg/mL
 4  COc1ccc2nccc(-n3cc4c(n3)CCC(NC(=O)c3cc5c(cc3F)SCC(=O)N5)C4)c2c1 (configuration not stated)  0.031 µg/mL
 5  COc1ccc2nccc(-n3cc4c(n3)CCC(NCc3ccc5c(c3)NC(=O)CS5)C4)c2c1 (configuration not stated)   0.25 µg/mL
 6  CCn1cc(C(=O)O)c(=O)c2cc(F)c(N3CCNCC3)cc21  > 128 µg/mL
 7  COc1ccc2nccc(-n3cc4c(n3)CCC(NC(=O)c3cc5c(cc3F)SCC(=O)N5)C4)c2n1 (configuration not stated)  0.015 µg/mL
 8  COc1ccc2nccc(-n3cc4c(n3)CCC(NC(=O)c3ccc5c(c3)NC(=O)CS5)C4)c2n1 (configuration not stated)    0.5 µg/mL
 9  O=C1CSc2ccc(C(=O)NC3CCc4nn(-c5cccc6cccnc56)cc4C3)cc2N1 (configuration not stated)      4 µg/mL
10  C[C@@H]1CN(c2c(F)c(N)c3c(=O)c(C(=O)O)cn(C4CC4)c3c2F)C[C@H](C)N1      8 µg/mL
11  COc1ccc2nccc(-n3cc4c(n3)CCC(NCc3ccc5c(c3)NC(=O)CS5)C4)c2n1 (configuration not stated)  0.125 µg/mL
12  COc1ccc2nccc(-n3cc4c(n3)CCC(NC/C=C/c3ccccc3)C4)c2n1 (configuration not stated)  0.062 µg/mL

Values were extracted from ChEMBL document CHEMBL1147922.
